Reported IC50 (ng/ml), MPV A GFP neutralization values for the following binders.
target: fusion glycoprotein (F) of MPV A GFP (Tables 41 and 43) (metapneumovirus A); assay: cell-based or functional assay
Only the number, expressed in ng/mL, is required.

Use the examples below as a reference point.
- MPK190-v1.1-rIgG1m17,1-LS (antibody, V domains shown, also called MPK190-v1.1-rIgG1-LS) VH: QVQLVESGGGLVKPGGSLTLSCAASGFSISGYGMNWVRQAPGRGLEWVASISASSTYIYYADSMKGRFTISRDNGKTSLYLQMKSLRAEDTAVYYCARAPIEPPYFDLWGRGTLVTVSS VL: QSVLTQPPSVSGAPGQRVTISCTGSNSNIGAGYDVHWYQHLPGKAPKVLIYGNNNRPSVVPDRFSGSNSGASASLAISGLQAEDEADYFCQSYDRRLSGPIFGGGTKLTVL: 4.03
- MPK104-rIgG1-LS (antibody, V domains shown) VH: EVQLVESGGGLVKPGGSLRLSCAASGFTIDGYGMNWVRQAPGKGLEWVSSISASSNYIYYADSMKGRFTISRDNGKNSLYLQMHSLRVEDTGVYYCARAPLEPPYFDLWGRGTLVTVSS VL: QSVLTQPPSVSGAPGQRVTISCSGGSSNIGAGYDVHWYQQVPGKGPKVLIYGNNNRPSGVPDRFSGSNFGASASLAITGLQADDEADYFCQSYDRRLGGPVFGGGTKLTVL: 6.79
- MPH12-rIgG1-LS (antibody, V domains shown) VH: QVQLVESGGGLVKPGGSLRLSCVASGFTFSGFYMKWIRQAPGKGLEWVSSISASGSYTNYADSVEGRFTVSRDNAKNSLFLLMSSLRAEDTAVYYCARGDSYCGASACHGEFFHKWGQGTLVTVSS VL: QSVLTQPPSVSGAPGQRVTISCTGSDSNIGADFDVHWYQQLPGTAPKLLIYGNINRPSGVPDRFSGSRSGTSAFLAITRLQAEDEADYYCQSYDRSLHYVFGAGTKVTVL: 13

The reported IC50 (ng/ml), MPV A GFP neutralization of the binder MPK190-v1.3-rIgG1m17,1-LS (antibody, V domains shown, also called MPK190-v1.3-rIgG1-LS) VH: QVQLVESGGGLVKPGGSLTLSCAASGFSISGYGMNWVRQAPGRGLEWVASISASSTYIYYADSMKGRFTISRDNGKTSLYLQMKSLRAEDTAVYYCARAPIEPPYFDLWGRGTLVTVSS VL: QSVLTQPPSVSGAPGQRVTISCTGSSSNIGAGYDVHWYQHLPGKAPKVLIYGNTNRPSVVPDRFSGSNSGASASLAISGLQAEDEADYFCQSYDRRLSGPIFGGGTKLTVLG was 5.99

IC50 (ng/ml), MPV A GFP neutralization recorded for this binder, MPK104-v1.3-rIgG1m17,1-LS (antibody, V domains shown, also called MPK104-v1.3-rIgG1-LS) VH: QVQLVESGGGLVKPGGSLRLSCAASGFTIDGYGMNWVRQAPGKGLEWVSSISASSNYIYYADSMKGRFTISRDNGKNSLYLQMHSLRVEDTGVYYCARAPLEPPYFDLWGRGTLVTVSS VL: QSVLTQPPSVSGAPGQRVTISCSGGSSNIGAGYDVHWYQQVPGKGPKVLIYGNTNRPSGVPDRFSGSNFGASASLAITGLQAEDEADYFCQSYDRRLGGPVFGGGTKLTVL , is 5.57

Sample MPK77-rIgG1-LS (antibody, V domains shown) VH: EVQLVESGGGLVKPGGSLRLSCAASKSFSGYYMIWIRQAPGRGLEWIADISGSSTYTDYADSVKGRFTISRDNTRNTLYLQMNSLRPEDTAVYYCATEQVPSPGPFDLWGPGTLVTVSS VL: QSVLTQPPSVSGAPGQRVIISCTGSSSNIGAGYDVHWYQQFPGTSPKLLIYRNTNRPSGVPDRFSGFKSGASAALAITGLQAEDEADYYCQSYDRSLSGWAFGGGTKVTVL ; IC50 (ng/ml), MPV A GFP neutralization observed: 12.9
